Setup conditions: in methyl acetate, 318.15 K
Measured property: solubility (mole fraction)
One number for each entry.

Any idea what solubility (mole fraction) was measured for O=C1OC(=O)[C@H]2[C@@H]1[C@@H]1C=C[C@H]2C1 ?
0.11

* * *

Setup conditions: in ethanol, 308.15 K
Measured property: solubility (mole fraction)
Answers are plain numbers.

Could you share which solubility (mole fraction) value was measured for O=C1OC(=O)[C@H]2[C@@H]1[C@@H]1C=C[C@H]2C1 ?
0.00872

* * *

Setup conditions: in acetone, 318.15 K
Measured property: solubility (mole fraction)
One number for each entry.

Param item = O=C1OC(=O)[C@H]2[C@@H]1[C@@H]1C=C[C@H]2C1 ; retrieve measured solubility (mole fraction).
0.138

* * *

Setup conditions: in ethanol, 303.15 K
Measured property: solubility (mole fraction)
Answers are plain numbers.

Returns the measured solubility (mole fraction) for the input molecule. Input: O=C1OC(=O)[C@H]2[C@@H]1[C@@H]1C=C[C@H]2C1
0.00699

* * *

Setup conditions: in ethyl acetate, 318.15 K
Measured property: solubility (mole fraction)
Answers are plain numbers.

Param item = O=C1OC(=O)[C@H]2[C@@H]1[C@@H]1C=C[C@H]2C1 ; retrieve measured solubility (mole fraction).
0.0969

* * *

Setup conditions: in n-propyl acetate, 308.15 K
Measured property: solubility (mole fraction)
Numbers only.

Would you kindly share the measured solubility (mole fraction) for O=C1OC(=O)[C@H]2[C@@H]1[C@@H]1C=C[C@H]2C1 ?
0.0661

* * *

Setup conditions: in ethanol, 313.15 K
Measured property: solubility (mole fraction)
Answers are plain numbers.

Return reported solubility (mole fraction); argument: O=C1OC(=O)[C@H]2[C@@H]1[C@@H]1C=C[C@H]2C1
0.0109

* * *

Setup conditions: in isobutyl acetate, 323.15 K
Measured property: solubility (mole fraction)

What value of measured solubility (mole fraction) is listed for O=C1OC(=O)[C@H]2[C@@H]1[C@@H]1C=C[C@H]2C1 ?
0.0848

* * *

Setup conditions: in DMF, 293.15 K
Measured property: solubility (mole fraction)
Answers are plain numbers.

Requested field: solubility (mole fraction). Item: O=C1OC(=O)[C@H]2[C@@H]1[C@@H]1C=C[C@H]2C1
0.12

* * *

Setup conditions: in n-propyl acetate, 323.15 K
Measured property: solubility (mole fraction)
One number for each entry.

I have this compound here, O=C1OC(=O)[C@H]2[C@@H]1[C@@H]1C=C[C@H]2C1 , and I need its recorded solubility (mole fraction).
0.101

* * *

Setup conditions: in methyl acetate, 278.15 K
Measured property: solubility (mole fraction)
Answers are plain numbers.

Look up solubility (mole fraction) for this compound: O=C1OC(=O)[C@H]2[C@@H]1[C@@H]1C=C[C@H]2C1
0.0358

* * *

Setup conditions: in isopropyl acetate, 288.15 K
Measured property: solubility (mole fraction)

What solubility (mole fraction) value was documented for this compound, O=C1OC(=O)[C@H]2[C@@H]1[C@@H]1C=C[C@H]2C1 ?
0.03

* * *

Setup conditions: in n-butyl acetate, 318.15 K
Measured property: solubility (mole fraction)
Answers are plain numbers.

Quick one: solubility (mole fraction) of O=C1OC(=O)[C@H]2[C@@H]1[C@@H]1C=C[C@H]2C1 ?
0.0788

* * *

Setup conditions: in NMP, 288.15 K
Measured property: solubility (mole fraction)
Give bare numbers.

Need solubility (mole fraction), item O=C1OC(=O)[C@H]2[C@@H]1[C@@H]1C=C[C@H]2C1
0.14

* * *

Setup conditions: in n-propyl acetate, 303.15 K
Measured property: solubility (mole fraction)
Numbers only.

State the recorded solubility (mole fraction) for this entry: O=C1OC(=O)[C@H]2[C@@H]1[C@@H]1C=C[C@H]2C1
0.0565

* * *

Setup conditions: in acetone, 308.15 K
Measured property: solubility (mole fraction)
Numbers only.

I have this compound here, O=C1OC(=O)[C@H]2[C@@H]1[C@@H]1C=C[C@H]2C1 , and I need its recorded solubility (mole fraction).
0.106

* * *

Setup conditions: in methanol, 278.15 K
Measured property: solubility (mole fraction)
Answers are plain numbers.

I would be grateful if you could share the reported solubility (mole fraction) for O=C1OC(=O)[C@H]2[C@@H]1[C@@H]1C=C[C@H]2C1 .
0.00403

* * *

Setup conditions: in acetone, 303.15 K
Measured property: solubility (mole fraction)

# query: solubility (mole fraction) of entry O=C1OC(=O)[C@H]2[C@@H]1[C@@H]1C=C[C@H]2C1
0.0897

* * *

Setup conditions: in NMP, 313.15 K
Measured property: solubility (mole fraction)

What value of measured solubility (mole fraction) is listed for O=C1OC(=O)[C@H]2[C@@H]1[C@@H]1C=C[C@H]2C1 ?
0.225

* * *

Setup conditions: in n-pentyl acetate, 293.15 K
Measured property: solubility (mole fraction)
Answers are plain numbers.

I have this compound here, O=C1OC(=O)[C@H]2[C@@H]1[C@@H]1C=C[C@H]2C1 , and I need its recorded solubility (mole fraction).
0.0327

* * *

Setup conditions: in n-propyl acetate, 313.15 K
Measured property: solubility (mole fraction)
Answers are plain numbers.

Can you look up the measured solubility (mole fraction) of O=C1OC(=O)[C@H]2[C@@H]1[C@@H]1C=C[C@H]2C1 for me?
0.0761

* * *

Setup conditions: in NMP, 318.15 K
Measured property: solubility (mole fraction)
Numbers only.

Sample O=C1OC(=O)[C@H]2[C@@H]1[C@@H]1C=C[C@H]2C1 — what was its solubility (mole fraction)?
0.245

* * *

Setup conditions: in isobutyl acetate, 293.15 K
Measured property: solubility (mole fraction)
Numbers only.

solubility (mole fraction) for O=C1OC(=O)[C@H]2[C@@H]1[C@@H]1C=C[C@H]2C1 ?
0.0341

* * *

Setup conditions: in methyl acetate, 283.15 K
Measured property: solubility (mole fraction)
Numbers only.

Any idea what solubility (mole fraction) was measured for O=C1OC(=O)[C@H]2[C@@H]1[C@@H]1C=C[C@H]2C1 ?
0.0425

* * *

Setup conditions: in acetone, 278.15 K
Measured property: solubility (mole fraction)
One number for each entry.

Can you share its solubility (mole fraction)? I mean this compound: O=C1OC(=O)[C@H]2[C@@H]1[C@@H]1C=C[C@H]2C1
0.0395

* * *

Setup conditions: in isopropyl acetate, 323.15 K
Measured property: solubility (mole fraction)

Entry O=C1OC(=O)[C@H]2[C@@H]1[C@@H]1C=C[C@H]2C1 : reported solubility (mole fraction) = ?
0.0878

* * *

Setup conditions: in 1,4-dioxane, 313.15 K
Measured property: solubility (mole fraction)
Give bare numbers.

Look up solubility (mole fraction) for this compound: O=C1OC(=O)[C@H]2[C@@H]1[C@@H]1C=C[C@H]2C1
0.136

* * *

Setup conditions: in ethanol, 323.15 K
Measured property: solubility (mole fraction)
Answers are plain numbers.

Which solubility (mole fraction) is reported for this molecule? O=C1OC(=O)[C@H]2[C@@H]1[C@@H]1C=C[C@H]2C1
0.0168

* * *

Setup conditions: in n-butyl acetate, 323.15 K
Measured property: solubility (mole fraction)
Numbers only.

What does the data say about its solubility (mole fraction)? Entry: O=C1OC(=O)[C@H]2[C@@H]1[C@@H]1C=C[C@H]2C1
0.0908

* * *

Setup conditions: in NMP, 303.15 K
Measured property: solubility (mole fraction)

Form field: reported solubility (mole fraction) of O=C1OC(=O)[C@H]2[C@@H]1[C@@H]1C=C[C@H]2C1
0.19

* * *

Setup conditions: in methanol, 323.15 K
Measured property: solubility (mole fraction)

Which solubility (mole fraction) value is on record for O=C1OC(=O)[C@H]2[C@@H]1[C@@H]1C=C[C@H]2C1 ?
0.0311

* * *

Setup conditions: in DMF, 318.15 K
Measured property: solubility (mole fraction)
Give bare numbers.

Fill in: solubility (mole fraction) of O=C1OC(=O)[C@H]2[C@@H]1[C@@H]1C=C[C@H]2C1 is ___
0.208

* * *

Setup conditions: in isopropyl acetate, 278.15 K
Measured property: solubility (mole fraction)
Give bare numbers.

Which solubility (mole fraction) value is on record for O=C1OC(=O)[C@H]2[C@@H]1[C@@H]1C=C[C@H]2C1 ?
0.021

* * *

Setup conditions: in n-pentyl acetate, 323.15 K
Measured property: solubility (mole fraction)

solubility (mole fraction) lookup needed for O=C1OC(=O)[C@H]2[C@@H]1[C@@H]1C=C[C@H]2C1 , thanks.
0.0837

* * *

Setup conditions: in methanol, 313.15 K
Measured property: solubility (mole fraction)
Answers are plain numbers.

Suppose we examine the molecule O=C1OC(=O)[C@H]2[C@@H]1[C@@H]1C=C[C@H]2C1 ; what solubility (mole fraction) value has been reported?
0.0201

* * *

Setup conditions: in methanol, 308.15 K
Measured property: solubility (mole fraction)
Give bare numbers.

Report solubility (mole fraction) for O=C1OC(=O)[C@H]2[C@@H]1[C@@H]1C=C[C@H]2C1 please.
0.0157

* * *

Setup conditions: in isopropyl acetate, 303.15 K
Measured property: solubility (mole fraction)
Numbers only.

Tell me the measured solubility (mole fraction) of O=C1OC(=O)[C@H]2[C@@H]1[C@@H]1C=C[C@H]2C1 , please.
0.0489
